system: HepG2 cells; experiment: MTT antiproliferative assay, HepG2; assay type: cell-based, human; conditions: read-out: In vitro antiproliferative activity IC50, HepG2
pIC50: −log10 of the molar value.
ASSAY ENDPOINT: pIC50

[
  {
    "MOLECULE": "COc1cccc(/C=N/NC(=O)c2ccc(N3N=C(c4cccc(C)c4)CC3c3ccc4ccccc4c3)cc2)c1 (stereo not shown) [Compound H3]",
    "ASSAY ENDPOINT": "pIC50",
    "OBSERVED MEASUREMENT": 5.45
  },
  {
    "MOLECULE": "COc1cccc(/C=N/NC(=O)c2ccc(N3N=C(c4ccccc4)CC3c3ccc4ccccc4c3)cc2)c1 (stereo not shown) [Compound H1]",
    "ASSAY ENDPOINT": "pIC50",
    "OBSERVED MEASUREMENT": 4.54
  },
  {
    "MOLECULE": "COc1cccc(/C=N/NC(=O)c2ccc(N3N=C(c4ccccc4C)CC3c3ccc4ccccc4c3)cc2)c1 (stereo not shown) [Compound H2]",
    "ASSAY ENDPOINT": "pIC50",
    "OBSERVED MEASUREMENT": 6.17
  },
  {
    "MOLECULE": "COc1ccc(/C=N/NC(=O)c2ccc(N3N=C(c4ccccc4C)CC3c3ccc4ccccc4c3)cc2)cc1 (stereo not shown) [Compound H18]",
    "ASSAY ENDPOINT": "pIC50",
    "OBSERVED MEASUREMENT": 6.25
  }
]

a = COc1ccc(/C=N/NC(=O)c2ccc(N3N=C(c4cccc(C)c4)CC3c3ccc4ccccc4c3)cc2)cc1 (stereo not shown) [Compound H19]
b = COc1cccc(/C=N/NC(=O)c2ccc(N3N=C(c4ccc(C)cc4)CC3c3ccc4ccccc4c3)cc2)c1 (stereo not shown) [Compound H4]
query: // select label with min value of measured pIC50 from [ a , b ] Indicate which entry you chose by stating its label.
result: a
(a: 5.49, b: 6.29)
